Tested on: HL cells
Assay: Toxicity towards the host cells, Trypan blue staining, no infection
Assay type: cell-based, human
Settings: 5 μM
Experimental: The determination was performed as in the previous tests but without any infection. The viability was determined with Trypan blue staining.
Property: Toxicity test HL-C; scope: individual compounds
property_label: Toxicity test HL-C (%)

- CCCCCCCCOC(=O)c1cc(O)c(O)c(O)c1 [Octyl gallate]: 8.8
- COc1cc(O)c2c(=O)c(O)c(-c3ccc(O)c(O)c3)oc2c1 [Rhamnetin]: 9.6
- O=c1c(O)c(-c2ccc(O)cc2O)oc2cc(O)cc(O)c12 [Morin]: 8.3
- O=c1c(O)c(-c2ccc(O)c(O)c2)oc2cc(O)cc(O)c12 [Quercetin]: 9.2

----------
System: C. pneumoniae
Test: Direct anti-chlamydial effect of compounds and mixtures on C. pneumoniae (Example 5)
Type: cell-based
Settings: Chlamydia pneumoniae; 50 μM; read-out: Inhibition %
property_label: inhibition at 50 µM (%)

* O=C(O)/C=C/c1ccc(O)c(O)c1 [Caffeic acid] | 78
* O=c1ccc2ccccc2o1 [Coumarin] | 28
* O=C(O)c1cc2cc(Br)cc(Br)c2oc1=O [6,8-dibromocoumarin-3-carboxylic acid] | 0

----------
System: HL cells
Assay: Toxicity towards the host cells, Trypan blue staining, no infection
Format: cell-based, human
Details: 0.5 μM
property_label: Toxicity test HL-C (%)

- O=c1c(O)c(-c2ccc(O)c(O)c2)oc2cc(O)cc(O)c12: 7.0
- CCCCCCCCOC(=O)c1cc(O)c(O)c(O)c1 [Octyl gallate]: 7.9
- COc1cc(O)c2c(=O)c(O)c(-c3ccc(O)c(O)c3)oc2c1: 10.0
- O=c1c(O)c(-c2ccc(O)cc2O)oc2cc(O)cc(O)c12: 8.4

----------
Test: Antioxidant effect, IC50 against DPPH
Type: biochemical
Details: read-out: IC50 [moles L^−1] against DPPH′
property_label: IC50

• O=c1cc(-c2ccc(O)cc2)oc2cc(O)cc(O)c12 = > 3.7 mM
• O=C1C[C@@H](c2ccc(O)cc2)Oc2cc(O)cc(O)c21 = > 3.67 mM
• O=c1cc(-c2ccccc2)oc2ccccc12 = > 4.5 mM
• COc1ccc(-c2cc(=O)c3c(O)cc(O)cc3o2)cc1 = > 3.52 mM
• O=C(O)c1ccccc1 = > 8.19 mM
